System: IGROV-1
measurement.protocol: NCI tumour cell line growth inhibition, 48 h
Active and inactive are the calls of the source. No stated cut-off is given here; in the data, active = GI50 up to about 1.1 µM and inactive = higher.
Give measured GI50 for each item. Keep answers brief.

Incoming: Entry Cc1ccc2[nH]c3c(c(=O)n(C)c(=O)n3C)c2c1 : reported GI50 = ?
Outgoing: > 100 µM (inactive)

Incoming: Likewise for CN(/N=C1\C(=O)Nc2ccccc21)c1ccccc1 ?
Outgoing: 36.6 µM (inactive)

Incoming: Likewise for CNC(=O)N(CCC#N)[C@H]1CCCC[C@@H]1N(C(=O)NC)c1ccccc1 ?
Outgoing: > 100 µM (inactive)

Incoming: Likewise for COC(=O)C(c1ccc(OC)cc1)N1C(=O)[C@@H](NC(=O)c2ccccc2)[C@H]1[C@@H](C)O (stereo not given in full) ?
Outgoing: > 100 µM (inactive)

Incoming: Likewise for C(/C=N/N=C1NCCN1)=N\N=C1NCCN1 ?
Outgoing: > 100 µM (inactive)

Incoming: Likewise for COc1ccccc1-c1cc(=O)c2ccccc2[nH]1 ?
Outgoing: 99.8 µM (inactive)

Incoming: Likewise for O=C(NNC(=O)c1ccc(Cl)cc1NC(=O)C12CC3CC(CC(C3)C1)C2)c1ccc(Cl)cc1 ?
Outgoing: 15 µM (inactive)

Incoming: Likewise for CS/C(=N/S(=O)(=O)c1ccc(Cl)cc1)NCCCN/C(=N\S(=O)(=O)c1ccc(Cl)cc1)SC ?
Outgoing: 30.4 µM (inactive)

Incoming: Likewise for C[C@@H]1[C@@H](c2ccccc2)O[B-](c2ccccc2)(c2ccccc2)[N+]1(C)C ?
Outgoing: 96.8 µM (inactive)

Incoming: Likewise for CN(C)CCCN1N=Nc2cccc3cccc1c23 ?
Outgoing: > 100 µM (inactive)

Incoming: Likewise for CCCCCCCCCCCCC(SCCNC(=O)CCNC(=O)C(O)C(C)(C)COP(=O)(O)OP(=O)(O)OCC1OC(n2cnc3c(N)ncnc32)C(O)C1OP(=O)(O)O)C(=O)NCC(N)=O (stereo not given) ?
Outgoing: > 100 µM (inactive)

Incoming: Likewise for CCOS(=O)(=O)c1ccc(-c2c3nc(c(-c4ccc(S(=O)(=O)OCC)cc4)c4ccc([nH]4)c(-c4ccc(S(=O)(=O)OCC)cc4)c4nc(c(-c5ccc(S(=O)(=O)OCC)cc5)c5ccc2[nH]5)C=C4)C=C3)cc1 ?
Outgoing: > 100 µM (inactive)

Incoming: Likewise for O=C(O)Cc1cc(F)ccc1C(=O)O ?
Outgoing: 23.6 µM (inactive)

Incoming: Likewise for COc1ccc(C(=O)NC2=C(Cl)C(=O)c3ccccc3C2=O)cc1 ?
Outgoing: 2.52 µM (inactive)

Incoming: Likewise for CCSc1nn(-c2c3ccccc3nc3ccccc23)c(=S)s1 ?
Outgoing: > 100 µM (inactive)

====

Tested on: NCI-H23
measurement.protocol: NCI tumour cell line growth inhibition, 48 h
Activity calls are given as the source filed them. No stated cut-off is given here; in the data, active = GI50 up to about 1.1 µM and inactive = higher.
Give measured GI50 for each item. Keep answers brief.

Incoming: Entry NC(=S)N1N=C(c2ccccc2O)CC1c1ccccc1 (stereo not drawn) : reported GI50 = ?
Outgoing: 18.5 µM (inactive)

Incoming: Likewise for C[C@@H](c1ccccc1)N1CN(C(=O)OCc2ccccc2)C(C)(C)CC1=O ?
Outgoing: > 100 µM (inactive)

Incoming: Likewise for COc1ccc(N2C(=O)C3c4[nH]c5ccccc5c4C4C(C)CCCC4C3C2=O)cc1 (stereo not drawn) ?
Outgoing: 54.7 µM (inactive)

Incoming: Likewise for COC(=O)C(Cc1c[nH]c2ccccc12)NP(=O)(O)OCC1OC(n2ccc(N)nc2=O)C(O)C1O (stereo not drawn) ?
Outgoing: > 100 µM (inactive)

Incoming: Likewise for NCCSCC(N)C(=O)O (stereo not drawn) ?
Outgoing: > 497 µM (inactive)

Incoming: Likewise for CCN(CC)CCC1CCCCN1CC(=O)N1c2cc(Cl)ccc2NC(=O)CC1C (stereo not drawn) ?
Outgoing: > 100 µM (inactive)

Incoming: Likewise for O=c1ccc2ccc(O)c3c4c(O)ccc5ccc(=O)c(c1c23)c54 ?
Outgoing: 1.66 µM (inactive)

Incoming: Likewise for CCOC(=O)C(CCCNC(=O)OC(C)(C)C)N(Cc1ccc(OC)cc1OC)C(=O)CC(=O)CP(=O)(OCC)OCC (stereo not drawn) ?
Outgoing: > 100 µM (inactive)
